The values you see were collected from ChEMBL document CHEMBL1151757.

test system: Pons; assay: Drug uptake in anesthetized cynomolgus monkey brain pons after 4.5 mins postinjection; assay type: ADME, organism-based, Macaca fascicularis; conditions: in vivo, 0.075 h
Mark 1.0 for reported Drug uptake of 2 or greater; mark 0.0 for anything smaller.

[
  {
    "compound": "O=C(OCC[18F])C1C2CCC(CC1c1cccc(/C=C\\I)c1)N2 (stereo not given)",
    "className": 0.0
  },
  {
    "compound": "O=C(OCCC[18F])C1C2CCC(CC1c1cccc(/C=C\\I)c1)N2 (stereo not given)",
    "className": 0.0
  },
  {
    "compound": "O=C(OCC[18F])C1C2CCC(CC1c1ccc(/C=C\\I)cc1)N2 (stereo not given)",
    "className": 0.0
  },
  {
    "compound": "O=C(OCCC[18F])C1C2CCC(CC1c1cccc(/C=C\\Br)c1)N2 (stereo not given)",
    "className": 1.0
  },
  {
    "compound": "O=C(OCC[18F])C1C2CCC(CC1c1cccc(/C=C\\Br)c1)N2 (stereo not given)",
    "className": 0.0
  }
]

----------
Examples of compounds with documented Drug uptake follow.
system: Caudate; experiment: Drug uptake in anesthetized cynomolgus monkey brain caudate after 55 mins postinjection; format: ADME, organism-based, Macaca fascicularis, Caudate nucleus; conditions: in vivo

[
  {
    "compound": "O=C(OCCC[18F])C1C2CCC(CC1c1cccc(/C=C\\Br)c1)N2 (stereo not given)",
    "Drug uptake": 5.31
  },
  {
    "compound": "O=C(OCC[18F])C1C2CCC(CC1c1ccc(/C=C\\I)cc1)N2 (stereo not given)",
    "Drug uptake": 2.73
  },
  {
    "compound": "O=C(OCCC[18F])C1C2CCC(CC1c1cccc(/C=C\\I)c1)N2 (stereo not given)",
    "Drug uptake": 4.09
  },
  {
    "compound": "O=C(OCC[18F])C1C2CCC(CC1c1cccc(/C=C\\Br)c1)N2 (stereo not given)",
    "Drug uptake": 4.1
  },
  {
    "compound": "O=C(OCC[18F])C1C2CCC(CC1c1cccc(/C=C\\I)c1)N2 (stereo not given)",
    "Drug uptake": 3.72
  }
]

----------
assay: Ratio of drug uptake in occipital lobe to cerebellum in anesthetized cynomolgus monkey after 175 mins postinjection; format: ADME, organism-based, Macaca fascicularis; conditions: in vivo

[
  {
    "molecule": "O=C(OCCC[18F])C1C2CCC(CC1c1cccc(/C=C\\Br)c1)N2 (centres undefined)",
    "Ratio": 1.3
  },
  {
    "molecule": "O=C(OCC[18F])C1C2CCC(CC1c1cccc(/C=C\\Br)c1)N2 (centres undefined)",
    "Ratio": 1.2
  },
  {
    "molecule": "O=C(OCC[18F])C1C2CCC(CC1c1cccc(/C=C\\I)c1)N2 (centres undefined)",
    "Ratio": 1
  },
  {
    "molecule": "O=C(OCCC[18F])C1C2CCC(CC1c1cccc(/C=C\\I)c1)N2 (centres undefined)",
    "Ratio": 1.1
  }
]

----------
Examples of compounds with documented Ratio follow.
test: Ratio of drug uptake in pons to cerebellum in anesthetized cynomolgus monkey after 125 mins postinjection; assay type: ADME, organism-based, Macaca fascicularis; details: in vivo
endpointLabel: Ratio

[
  {
    "compound": "O=C(OCC[18F])C1C2CCC(CC1c1ccc(/C=C\\I)cc1)N2 (centres undefined)",
    "endpointLabel": "Ratio",
    "result": 2.1
  },
  {
    "compound": "O=C(OCC[18F])C1C2CCC(CC1c1cccc(/C=C\\Br)c1)N2 (centres undefined)",
    "endpointLabel": "Ratio",
    "result": 1.6
  },
  {
    "compound": "O=C(OCCC[18F])C1C2CCC(CC1c1cccc(/C=C\\Br)c1)N2 (centres undefined)",
    "endpointLabel": "Ratio",
    "result": 1.4
  },
  {
    "compound": "O=C(OCCC[18F])C1C2CCC(CC1c1cccc(/C=C\\I)c1)N2 (centres undefined)",
    "endpointLabel": "Ratio",
    "result": 1.4
  }
]
